- assayed-target: T1, human GIP receptor (human, UniProt P48546 22-466)
- T1 sequence (looked up): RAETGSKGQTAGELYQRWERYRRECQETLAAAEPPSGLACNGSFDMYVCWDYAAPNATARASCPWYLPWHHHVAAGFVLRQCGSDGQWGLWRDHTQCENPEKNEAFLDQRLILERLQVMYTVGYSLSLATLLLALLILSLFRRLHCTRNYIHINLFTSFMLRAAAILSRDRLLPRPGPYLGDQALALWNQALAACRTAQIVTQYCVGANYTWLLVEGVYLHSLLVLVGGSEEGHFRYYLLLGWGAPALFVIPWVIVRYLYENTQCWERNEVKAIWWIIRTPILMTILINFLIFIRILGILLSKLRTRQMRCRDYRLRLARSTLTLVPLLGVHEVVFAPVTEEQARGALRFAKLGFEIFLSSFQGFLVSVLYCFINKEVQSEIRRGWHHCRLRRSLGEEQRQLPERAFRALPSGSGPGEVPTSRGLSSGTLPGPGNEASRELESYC
- procedure-details: cell-based or functional assay
Bridge positions count the residues as written; N and C are the ends. Square brackets hold non-standard residues; d marks the D form. Ends that are not written are not given here. * marks the point of attachment. Acetyl(2-(4-imidazolyl)) = O=C(Cc1c[nH]cn1)*; Aib = CC(C)(N)C(=O)O
# In vitro activity compared to native-type peptide (%), vs GIP annotations
parameter: In vitro activity compared to native-type peptide (%), vs GIP

Y[Aib]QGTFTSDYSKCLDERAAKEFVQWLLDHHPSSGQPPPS (bridge 16-20) [triple agonist of SEQ ID NO: 69] | 62.8
H[Aib]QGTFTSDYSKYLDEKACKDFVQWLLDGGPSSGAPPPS (bridge 16-20) [triple agonist of SEQ ID NO: 32] | 8.8
H[Aib]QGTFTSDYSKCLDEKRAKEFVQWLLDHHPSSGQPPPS (bridge 16-20) [triple agonist of SEQ ID NO: 65] | 11.6
Y[Aib]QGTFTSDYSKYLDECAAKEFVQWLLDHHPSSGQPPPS (bridge 16-20) [triple agonist of SEQ ID NO: 64] | 92.9
Y[Aib]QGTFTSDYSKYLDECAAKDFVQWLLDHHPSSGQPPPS (also: ring formation (underlined residues), positions not given here) [triple agonist of SEQ ID NO: 67] | 39.8
{Acetyl(2-(4-imidazolyl))}-[Aib]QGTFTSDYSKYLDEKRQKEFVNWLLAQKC (bridge 15-19) [triple agonist of SEQ ID NO: 93] | 0.7
H[Aib]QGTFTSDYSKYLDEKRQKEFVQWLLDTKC (bridge 16-20) [triple agonist of SEQ ID NO: 78] | 0.12
{Acetyl(2-(4-imidazolyl))}-[Aib]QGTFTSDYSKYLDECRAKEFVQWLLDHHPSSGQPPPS (bridge 15-19) [triple agonist of SEQ ID NO: 73] | 3
